System: SARS-CoV-2
Test: Antiviral activity against SARS-Cov2 USA-WA1/2020 infected in African green monkey Vero E6 cells assessed as viral plaque reduction measured after 3 days by plaque reduction neutralization test
Type: functional, organism-based
Details: Severe acute respiratory syndrome coronavirus 2, USA-WA1/2020, Vero C1008, 72 h
endpointName: pEC50
Interpret pEC50 as the negative base-10 log of the concentration measured in mol/L.

// query pEC50 value for entry C[C@@H](OC(C)(C)C)[C@H](NC(=O)OCc1cccc(Cl)c1)C(=O)N[C@@H](CC1CCCCC1)C(=O)N[C@H](C=O)C[C@@H]1CCNC1=O 5.66

Further cases:
Requested field: pEC50. Item: C[C@@H](OC(C)(C)C)[C@H](NC(=O)OCc1ccccc1)C(=O)N[C@@H](CC(C)(C)C)C(=O)N[C@H](C=O)C[C@@H]1CCNC1=O 5.92

Ok, now C[C@@H](OC(C)(C)C)[C@H](NC(=O)OCc1ccccc1)C(=O)N[C@@H](CC1CC1)C(=O)N[C@H](C=O)C[C@@H]1CCNC1=O 5.92

How about this compound: CC(C)C[C@H](NC(=O)[C@@H](NC(=O)OCc1cccc(Cl)c1)[C@@H](C)OC(C)(C)C)C(=O)N[C@H](C=O)C[C@@H]1CCNC1=O 5.72

Cited source for all entries: ChEMBL document CHEMBL5113464
